Below, each of the compounds is paired with its reported pIC50 value.
target_desc: human recombinant H-PGDS (Homo sapiens, UniProt O60760)
Sequence (O60760 whole entry): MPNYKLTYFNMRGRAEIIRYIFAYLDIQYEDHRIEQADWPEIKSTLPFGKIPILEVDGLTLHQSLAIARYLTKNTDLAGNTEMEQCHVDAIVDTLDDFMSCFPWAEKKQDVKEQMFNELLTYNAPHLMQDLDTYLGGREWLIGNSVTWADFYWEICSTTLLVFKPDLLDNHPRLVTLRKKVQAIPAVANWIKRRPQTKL
experiment_notes: Fluorescence Intensity h-PGDS TBA Enzyme Assay
Assay type: biochemical
condition_description: 1:175,000 human recombinant H-PGDS, highest inhibitor concentration typically 1 μM
Keep it numeric: pIC50 is minus log10 of the concentration in mol/L.

compound | pIC50
COC(=O)CNC(=O)c1ccc(-c2cccc(F)c2)nc1 | 7.09
O=C(NCCN1CCOCC1)c1ccc(-c2ccccc2)nc1 | 7.62
O=C(NCCNc1ncccn1)c1ccc(-c2cccc(F)c2)nc1 | 7.89
O=C(NCCc1ccncc1)c1ccc(-c2ccc(F)cc2)nc1 | 6.62
O=C(NC(CCc1ccccc1)c1nn[nH]n1)c1ccc(-c2cccc(F)c2)nc1 (stereo not drawn) | 7.76

Record request: pIC50 value, item NS(=O)(=O)c1ccc(CNC(=O)c2ccc(-c3cccc(F)c3)nc2)cc1 7.03

Record request: pIC50 value, item CN1CCC(O)(CNC(=O)c2ccc(-c3cccc(F)c3)nc2)CC1 6.89

Record request: pIC50 value, item O=C(Nc1cccnc1)c1ccc(-c2ccc(F)cc2)nc1 7.04

Record request: pIC50 value, item COC(=O)CNC(=O)[C@H](C)NC(=O)c1ccc(-c2cccc(OC)c2)nc1 6.25

Record request: pIC50 value, item CCCCCNC(=O)c1ccc(-c2cccc(F)c2)nc1 [Example 427, 6-(3-Fluorophenyl)-N-pentylnicotinamide] 7.36

Record request: pIC50 value, item CCOC(=O)CCCNC(=O)c1ccc(-c2cccc(OC)c2)nc1 7.30

Record request: pIC50 value, item O=C(Nc1cccn(Cc2ccccc2)c1=O)c1ccc(-c2ccccc2)nc1 8.10

---

Below, each of the compounds is paired with its reported pIC50 value.
target_desc: human recombinant H-PGDS (Homo sapiens, UniProt O60760)
experiment_notes: Fluorescence Intensity h-PGDS TBA Enzyme Assay
Assay type: biochemical
condition_description: 1:175,000 human recombinant H-PGDS, highest inhibitor concentration typically 1 μM
Protocol: Fluorescence Intensity h-PGDSTBA Enzyme Assay Prostaglandin D Synthase (PGDS) converts the substrate prostaglandin H2 (PGH2) to prostaglandin D2. The depletion of PGH2 was measured via an Fe(II) reduction of the remaining PGH2 to malondialdehyde (MDA) and 12-HHT. […]
Keep it numeric: pIC50 is minus log10 of the concentration in mol/L.

compound | target_desc | pIC50
CCOC(=O)CCCNC(=O)c1ccc(-c2cccc(F)c2)nc1 | human recombinant H-PGDS (Homo sapiens, UniProt O60760) | 8.04

Record request: pIC50 value, item COc1cccc(-c2ccc(C(=O)NCC3CCN(C(C)=O)CC3)cn2)c1 6.25

Record request: pIC50 value, item CCN(CC)CCCCNC(=O)c1ccc(-c2cccc(F)c2)nc1 7.06

Record request: pIC50 value, item CCC(C)C(CO)NC(=O)c1ccc(-c2cccc(F)c2)nc1 (stereo not drawn) 7.21

Record request: pIC50 value, item Cc1cc(=O)[nH]c(NCCNC(=O)c2ccc(-c3cccc(F)c3)nc2)n1 7.41

Record request: pIC50 value, item O=C(NC(CN1CCOCC1)c1ccccc1)c1ccc(-c2cccc(F)c2)nc1 (stereo not drawn) 7.41

Record request: pIC50 value, item COC(=O)c1ccc(CNC(=O)c2ccc(-c3ccc(F)cc3)nc2)cc1 6.54

Record request: pIC50 value, item CCOC(=O)CC(NC(=O)c1ccc(-c2cccc(F)c2)nc1)c1ccc(OC)cc1 (stereo not drawn) 7.71

Record request: pIC50 value, item Cc1ccc(C#N)c(N2C[C@H](NC(=O)c3ccc(-c4cccc(F)c4)nc3)[C@@H](O)C2)n1 8.31
